- Tested on: Staphylococcus epidermidis
- MEASUREMENT DESCRIPTION: Antimicrobial activity against Staphylococcus epidermidis ATCC 12228 by microdilution method
- Type: functional
READOUT KIND: MIC

Sample records with MIC:
C=C1C[C@H](OC(C)=O)[C@]23C(C(=O)OC)=CCC[C@H]2[C@]12C[C@H](c1ccoc1)O[C@H]2O[C@H]3O = > 150 µM
C[C@@H]1C(=O)CC[C@H]2[C@@]1(C)CC[C@H]1C(=O)O[C@H](c3ccoc3)C[C@]21C (relative stereo) = > 150 µM
C[C@@H]1CC[C@]2(C)[C@H](CC[C@@H](O)[C@]2(C)O)[C@@]1(C)C[C@H](O)c1ccoc1 = > 150 µM
COC(=O)C1=CCC[C@@H]2[C@]13CC[C@H](C)[C@@]21C[C@H](c2ccoc2)O[C@H]1O[C@H]3O = > 150 µM
C[C@@H]1CC[C@]2(C)[C@H](CC[C@@H](O)[C@]2(C)O)[C@@]1(C)CCc1ccoc1 = > 150 µM

MIC reading for C/C(=C\CO)[C@@H]1C[C@@H]2[C@@]3(C)CCCC(C)(C)[C@@H]3C[C@H](O)[C@@]2(C)O1 : > 150 µM

Reported MIC ( COC(=O)C1=CCC[C@@H]2[C@]13CC[C@H](C)[C@@]21C[C@H](c2ccoc2)O[C@H]1O[C@@H]3O ) = > 150 µM
